Experiment: Brain concentration and brain/plasma ratio in mouse after 10 mg/kg p.o.
Assay type: in vivo
Measurement setup: plasma, po, 10 mg/kg, PO 10 mg/kg, 8.00 h, individual animal R3, read-out: Plasma Concentration, R3 + 3n
Quantity name: concentration at 8 h (ng/mL)

Compound: CCN1CCN(Cc2ccc(Nc3ncc(F)c(-c4cc(F)c5nc(C)n(C(C)C)c5c4)n3)nc2)CC1 [abemaciclib, reference compound]
Unit name: ng/mL
concentration at 8 h: 780

Compound: CCN1CCN(Cc2ccc(Nc3ncc(F)c(-c4ccc5nn(C)c(C(C)C)c5c4)n3)nc2)CC1 [Compound 1]
Unit name: ng/mL
concentration at 8 h: 722

Every entry's value here was drawn from patent US20220079944A1.
